# measurement.target: HSD2 (Homo sapiens (Human), UniProt P80365)
# Sequence (P80365 whole entry): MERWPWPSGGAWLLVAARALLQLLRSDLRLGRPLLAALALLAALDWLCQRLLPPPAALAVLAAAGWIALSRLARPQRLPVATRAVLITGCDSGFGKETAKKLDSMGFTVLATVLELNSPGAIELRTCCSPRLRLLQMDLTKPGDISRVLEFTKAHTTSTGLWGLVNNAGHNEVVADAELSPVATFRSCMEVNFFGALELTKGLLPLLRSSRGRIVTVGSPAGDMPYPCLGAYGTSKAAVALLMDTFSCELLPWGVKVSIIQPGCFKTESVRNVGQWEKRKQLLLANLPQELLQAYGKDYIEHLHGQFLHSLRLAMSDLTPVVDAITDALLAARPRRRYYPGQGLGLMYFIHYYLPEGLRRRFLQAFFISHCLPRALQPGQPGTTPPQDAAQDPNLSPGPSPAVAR
# method.description: HSD2 activity: cortisol conversion in human descending colon organoid monolayer cultures (Example 112)
# test.context: human descending colon epithelial cultures on transwells; 30 minute pre-incubation, then 40 nM cortisol for four hours; cortisol HTRF assay
pIC50 by entry:
Output: the number by itself.

With HSD2 (Homo sapiens (Human), UniProt P80365) as the test system, provide measured pIC50 for this compound: CC1(C)[C@@H](OCC(=O)O)CC[C@]2(C)[C@H]3C(=O)C=C4[C@@H]5C[C@@](C)(C(=O)O)CC[C@]5(C)CC[C@@]4(C)[C@]3(C)CC[C@@H]12
5.4

Others:
With HSD2 (Homo sapiens (Human), UniProt P80365) as the test system, provide measured pIC50 for this compound: CC(=O)O[C@]1(C)CC[C@@]2(C)[C@@H](CC[C@]3(C)[C@@H]2C(=O)C=C2[C@@H]4C[C@@](C)(C(=O)O)CC[C@]4(C)CC[C@]23C)[C@]1(C)C(=O)OCc1oc(=O)oc1C(C)C
6.4

With HSD2 (Homo sapiens (Human), UniProt P80365) as the test system, provide measured pIC50 for this compound: CC(=O)O[C@H]1CC[C@@]2(C)[C@@H](CC[C@]3(C)[C@@H]2C(=O)C=C2[C@@H]4C[C@@](C)(C(=O)O)CC[C@]4(C)CC[C@]23C)[C@]1(C)C(=O)OCc1oc(=O)oc1-c1ccccc1
7.1

With HSD2 (Homo sapiens (Human), UniProt P80365) as the test system, provide measured pIC50 for this compound: Cc1oc(=O)oc1COC(=O)[C@]1(C)[C@@H](OC(=O)CS(C)(=O)=O)CC[C@@]2(C)[C@H]1CC[C@]1(C)[C@@H]2C(=O)C=C2[C@@H]3C[C@@](C)(C(=O)O)CC[C@]3(C)CC[C@]21C
6.3

----------
# measurement.target: HSD2 (Homo sapiens (Human), UniProt P80365)
# method.description: HSD2 activity: cortisol conversion in human descending colon organoid monolayer cultures (Example 112)
# test.context: human descending colon epithelial cultures on transwells; 30 minute pre-incubation, then 40 nM cortisol for four hours; cortisol HTRF assay
value.type: pIC50
Output: the number by itself.

Give the measured pIC50 for C[C@]1(C(=O)O)CC[C@]2(C)CC[C@]3(C)C(=CC(=O)[C@@H]4[C@@]5(C)CC[C@H](OC(=O)C6CC6)[C@@](C)(C(=O)O)[C@@H]5CC[C@]43C)[C@@H]2C1
5.8

Others:
Give the measured pIC50 for CC(=O)O[C@H]1CC[C@@]2(C)[C@@H](CC[C@]3(C)[C@@H]2C(=O)C=C2[C@@H]4C[C@@](C)(C(=O)O)CC[C@]4(C)CC[C@]23C)[C@]1(C)C(=O)OCc1oc(=O)oc1C
7.5

Give the measured pIC50 for Cc1oc(=O)oc1COC(=O)[C@]1(C)[C@@H](OC(=O)NCCN2CCOCC2)CC[C@@]2(C)[C@H]1CC[C@]1(C)[C@@H]2C(=O)C=C2[C@@H]3C[C@@](C)(C(=O)O)CC[C@]3(C)CC[C@]21C
6.9

Give the measured pIC50 for COCO[C@H]1CC[C@@]2(C)[C@@H](CC[C@]3(C)[C@@H]2C(=O)C=C2[C@@H]4C[C@@](C)(C(=O)O)CC[C@]4(C)CC[C@]23C)[C@]1(C)C(=O)OCc1oc(=O)oc1C
6.4

Give the measured pIC50 for Cc1oc(=O)oc1COC(=O)[C@]1(C)[C@@H](OC(=O)C2CC2)CC[C@@]2(C)[C@H]1CC[C@]1(C)[C@@H]2C(=O)C=C2[C@@H]3C[C@@](C)(C(=O)O)CC[C@]3(C)CC[C@]21C
7.7
